Hey, just so you know, these numbers are from PubChem BioAssay (NCATS).

assay_system: Cytochrome P450 3A4 (Homo sapiens)
experiment_notes: qHTS Assay for Inhibitors and Substrates of Cytochrome P450 3A4 (AID 884); note: potency is the fitted concentration of half-maximal effect; nearly all actives have a fitted effect of over 50% in size
condition_description: recombinant CYP3A4, Luciferin-PPXE luminescence; series mostly up to 57.1 µM
Inconclusive results are not listed. Calls of active or inactive are those of the source. Calls come from the whole dose curve; as a rule, active = well fitted inhibition curve with a large enough effect; inconclusive = small, poorly fitted or top-dose-only effect; inactive = no such curve, though single readings can be large or run the other way.
measure_name: Potency

smiles_str: COc1ccc2nc3c(cc2c1)Cc1ccccc1-3
result: 6.31 µM (active)
--
smiles_str: c1ccc2c(c1)Cc1cc3ccccc3nc1-2
result: 20 µM (active)

Task item: Quick one: Potency of "COC(=O)[C@@]1(Cc2ccccc2)[C@H]2c3cc(C(=O)N4CCCC4)n(CCc4ccccn4)c3C[C@H]2CN1C(=O)c1ccccc1" ?
Reply: 2 µM (active)

====

Tested on: TAB109
experiment_notes: qHTS profiling for inhibitors of Plasmodium falciparum proliferation (AID 504749); note: nearly all actives have a fitted effect of over 60% in size
condition_description: P. falciparum in erythrocytes, SYBR Green DNA, 72 h; series mostly up to 28.7 µM
Records with an inconclusive call do not appear. The source made the active and inactive calls. Calls come from the whole dose curve; as a rule, active = well fitted inhibition curve with a large enough effect; inconclusive = small, poorly fitted or top-dose-only effect; inactive = flat fitted curve, though single readings scatter.
Assign a class; possible classes are active, inactive

Recorded results for 5 molecules are shown here.
molecule: C[C@H]1[C@@H](OC(=O)CCC(=O)O)OC2OC3(C)CC[C@H]4[C@H](C)CC[C@@H]1[C@@]24OO3 (some centres not stated)
class_assignment: active
//
molecule: COC1CC2CCC(C)[C@](O)(O2)C(=O)C(=O)N2CCCCC2C(=O)OC(C(C)CC2CCC(O)C(OC)C2)CC(=O)C(C)/C=C(/C)C(O)C(OC)C(=O)C(C)CC(C)C=CC=C/C=C\1C (some centres not stated)
class_assignment: active
//
molecule: C[C@]12CC[C@@H]3c4ccc(O)cc4C[C@@H](CCCCCCCCCS(=O)CCCC(F)(F)C(F)(F)F)C3[C@@H]1CC[C@@H]2O (some centres not stated)
class_assignment: active
//
molecule: CCCC[C@H]1C(=O)N(c2ccccc2)N(c2ccc(O)cc2)C1=O
class_assignment: inactive
//
molecule: Clc1ccc(CS[C@@H](Cn2ccnc2)c2ccc(Cl)cc2Cl)cc1
class_assignment: active

Task item: Test call, this molecule: CC1CCC(C(C)C)C(O)C1 (configuration not stated)
Reply: inactive

Task item: Test call, this molecule: NC(CSSCC(N)C(=O)O)C(=O)O (configuration not stated)
Reply: inactive

Task item: Test call, this molecule: "CC1=C(c2ccc(NN=C(C#N)C#N)cc2)NNC(=O)C1"
Reply: inactive

Task item: Test call, this molecule: "NC(=O)OC[C@@H]1[C@H](NC(=O)/C(=N/OCC(=O)O)c2csc(N)n2)C(=O)N1S(=O)(=O)O"
Reply: inactive

Task item: Test call, this molecule: CC1CCC(O)C/C1=C\C=C1/CCCC2(C)C1CCC2C(C)/C=C/C(C)C(C)C (configuration not stated)
Reply: inactive

Task item: Test call, this molecule: C[C@H]1OC(OC2C(O)[C@@H](O)C(OC3C(O)[C@@H](O)C(O)O[C@@H]3CO)O[C@@H]2CO)[C@H](O)C(O)C1N[C@H]1C=C(CO)[C@@H](O)[C@H](O)C1O (some centres not stated)
Reply: inactive

Task item: Test call, this molecule: O=C1Oc2ccccc2C(=O)C1C(CC(O)c1ccc(-c2ccc(Br)cc2)cc1)c1ccccc1 (configuration not stated)
Reply: inactive

====

experiment_notes: AP1 Signaling Pathway (AID 357);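 note: ME-180 reporter cells stimulated with EGF at its EC50 level; % is set by controls: 0 for no effect and ±100 for the full control effect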
condition_description: ME-180 (cervical carcinoma) AP-1-bla reporter, EGF-induced, beta-lactamase ratio, 5 h; at 17.2 µM (top of the series) unless noted
Inconclusive results are not listed.
measure_name: activity change, negative = inhibition (%)
Provide only the numeric value, understood in %.

Please review the following examples before continuing.
compound: CCOCCn1c(SC)nc2c1c(=O)[nH]c(=O)n2C
result_number: 11

compound: COc1ccc(C2=Nn3c(nnc3-c3ccccn3)SC2)cc1OC
result_number: -18.1

compound: O=C1C2ON(c3ccccc3)C(c3cccnc3)C2C(=O)N1c1ccc(Cl)c(Cl)c1 (configuration not stated)
result_number: -4.98

Task item: Quick one: activity change, negative = inhibition of O=C1c2ccccc2S(=O)(=O)N1CC(O)COc1ccc(Cl)cc1 (configuration not stated) ?
Reply: -4.25

Task item: Quick one: activity change, negative = inhibition of CCN(CC)CCN1C(=O)C(=O)/C(=C(/O)c2ccc(F)cc2)C1c1ccncc1 (configuration not stated) ?
Reply: -7.07

====

assay_system: Glucocorticoid receptor (Homo sapiens) (UniProt P04150)
Sequence (P04150 whole entry, looked up): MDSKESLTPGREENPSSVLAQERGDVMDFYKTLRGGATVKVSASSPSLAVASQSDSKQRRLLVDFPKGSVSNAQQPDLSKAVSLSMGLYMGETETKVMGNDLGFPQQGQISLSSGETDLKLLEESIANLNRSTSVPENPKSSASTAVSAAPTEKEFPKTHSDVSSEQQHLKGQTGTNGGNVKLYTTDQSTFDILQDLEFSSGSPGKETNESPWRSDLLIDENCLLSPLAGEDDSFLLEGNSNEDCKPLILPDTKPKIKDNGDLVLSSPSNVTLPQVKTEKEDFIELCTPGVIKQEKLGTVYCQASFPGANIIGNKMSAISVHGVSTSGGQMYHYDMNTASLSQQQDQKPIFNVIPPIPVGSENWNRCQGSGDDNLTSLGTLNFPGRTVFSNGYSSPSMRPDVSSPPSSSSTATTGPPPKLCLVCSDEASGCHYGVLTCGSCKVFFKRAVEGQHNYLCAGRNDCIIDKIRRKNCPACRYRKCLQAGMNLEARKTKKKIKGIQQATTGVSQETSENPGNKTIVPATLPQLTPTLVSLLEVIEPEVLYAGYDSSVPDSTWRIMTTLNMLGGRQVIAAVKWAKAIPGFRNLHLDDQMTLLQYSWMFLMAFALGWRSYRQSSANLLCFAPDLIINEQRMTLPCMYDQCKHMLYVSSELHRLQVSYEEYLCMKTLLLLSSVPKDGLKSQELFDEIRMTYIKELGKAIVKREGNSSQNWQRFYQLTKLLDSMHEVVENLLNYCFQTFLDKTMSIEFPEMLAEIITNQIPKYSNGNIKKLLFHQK
experiment_notes: GR-EFC Redistribution (AID 451); note: potency is the fitted concentration of half-maximal effect
condition_description: CHO-K1 GR-EFC translocation, beta-gal luminescence, 2 h
Calls of active or inactive are those of the source. Calls follow the shape of the full dose curve.
Assign a class; possible classes are yes (active), no (inactive)

Recorded results for 10 molecules are shown here.
smiles_str: Clc1ccc(CO[C@@H](Cn2ccnc2)c2ccc(Cl)cc2Cl)cc1
class_assignment: no
//
smiles_str: NCCC[C@@H](CC(=O)N[C@@H]1CCNC[C@H]1C(=O)N[C@H](CC(=O)N[C@@H](CCC(=O)O)CC(=O)O)Cc1c[nH]c2ccccc12)NC(=O)C[C@H](Cc1ccccc1)NC(=O)[C@@H]1CCCC[C@H]1N
class_assignment: no
//
smiles_str: CC(C)C[C@@H](CC(=O)N[C@@H](CCCN)CC(=O)N[C@@H]1CCCC[C@H]1C(=O)N[C@H](CC(=O)N[C@@H](CCC(=O)O)CC(=O)O)CC(C)C)NC(=O)[C@@H]1CCCC[C@H]1N
class_assignment: no
//
smiles_str: O=C1C[C@H](c2ccccc2)Oc2cc(O)cc(O)c21
class_assignment: no
//
smiles_str: CC1(C)CC[C@]2(C(=O)O)CC[C@]3(C)C(=CC[C@@H]4[C@@]5(C)CC[C@H](O)C(C)(C)[C@@H]5CC[C@@]43C)[C@@H]2C1
class_assignment: no
//
smiles_str: C[C@@]12CCC(=O)C=C1CC[C@@H]1[C@@H]2[C@H](O)C[C@]2(C)[C@@H]1CC[C@]2(O)C(=O)COC(=O)CCC(=O)O
class_assignment: yes
//
smiles_str: O=C1C=CC2=C3c4cc(O)c(O)cc4C[C@@]3(O)COC2=C1O
class_assignment: no
//
smiles_str: COc1cc2nc(N3CC=[N+](C(=O)c4ccco4)CC3)nc(N)c2cc1OC
class_assignment: no
//
smiles_str: CC(C)[C@@H](CC(=O)N[C@@H]1CCCC[C@H]1C(=O)N[C@H](CC(=O)N[C@@H](CCC(=O)O)CC(=O)O)Cc1ccccc1)NC(=O)C[C@H](CO)NC(=O)[C@@H]1CNCC[C@H]1N
class_assignment: no
//
smiles_str: COc1cc(C(=O)O[C@@H]2CC(C)=CC[C@@]3(C)CC[C@](O)(C(C)C)[C@H]23)ccc1O
class_assignment: no

Continue with the next molecule.
Task item: Test call, this molecule: "CC1(C)[C@@H](O)CC[C@@]2(C)[C@H]1CC[C@]1(C)[C@H]2C(=O)C=C2[C@@H]3C[C@@](C)(C(=O)O)CC[C@]3(C)CC[C@@]21C"
Reply: no

====

experiment_notes: qHTS assay for small molecule disruptors of the mitochondrial membrane potential - 1 hr assay (AID 651754); note: % is set by controls: 0 for no effect and ±100 for the full control effect; nearly all actives have a fitted effect of over 35% in size
condition_description: series mostly up to 92.2 µM
Results filed as inconclusive are left out. The source made the active and inactive calls. The call rests on the fitted dose curve.
Assign a class; possible classes are YES (active), NO (inactive)

compound: c1ccc2c(c1)-c1cccc3c1c-2cc1ccccc13
class_assignment: NO

compound: C/C=C1\C(=O)C[C@H]2[C@@H]3CCC4=CC(=O)CC[C@]4(C)[C@H]3CC[C@]12C
class_assignment: NO

Continue with the next compound.
Task item: Test call, this compound: "CC/C(=C(\c1ccccc1)c1ccc(OCCN(C)C)cc1)c1ccc(O)cc1"
Reply: NO

====

experiment_notes: Cell Viability - LYMP2-016 (AID 984);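 note: cells exposed to compound for 24 hours at 37 °C; nearly all actives have a fitted effect of over 55% in size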
condition_description: LYMP2-016 lymphoblastoid cell viability, qHTS; series mostly up to 92.2 µM
Results filed as inconclusive are left out. The source made the active and inactive calls. The call rests on the fitted dose curve; in most records, active means well fitted cell-killing curve with a large enough effect; inconclusive means small, poorly fitted or top-dose-only effect; inactive means flat fitted curve, though single readings scatter.
Assign a class; possible classes are Y (active), N (inactive)

Recorded results for 2 compounds are shown here.
compound: C=C(C)c1ccccc1
class_assignment: N

compound: O=[N+]([O-])c1cc([N+](=O)[O-])c2ccc(S(=O)(=O)O)cc2c1O
class_assignment: N

Continue with the next compound.
Task item: Test call, this compound: O=C1OC(O)C(C(Cl)Cl)=C1Cl (stereo not drawn)
Reply: Y

====

experiment_notes: qHTS assay for small molecule activators of the nuclear factor-kappa B (NF-kB) signaling pathway (AID 651749); note: % of control where 0% means no effect
condition_description: NF-kB-bla ME-180 cells, beta-lactamase FRET ratio, 16 h; active compounds read high
Results filed as inconclusive are left out.
Parameter activation: see the listing below.
Provide only the numeric value, understood in %.

Please review the following examples before continuing.
smiles_str: C/C=C1\C(=O)C[C@H]2[C@@H]3CCC4=CC(=O)CC[C@]4(C)[C@H]3CC[C@]12C
readout_unit: %
activation: -4.79

smiles_str: O=C=Nc1ccc(Cc2ccc(N=C=O)cc2)cc1
readout_unit: %
activation: 0.0924

Lab note: next compound to report on.
Task item: Quick one: activation of "CNc1ccc(O)cc1" ?
Reply: -0.994
